All figures here come from patent US20250115671A1.

- experimental_system: T1, human CCR8 (human, UniProt P51685 1-355)
- T1 construct: Full length; also called huCCR8; C-C motif chemokine receptor 8
- T1 sequence (P51685 whole entry): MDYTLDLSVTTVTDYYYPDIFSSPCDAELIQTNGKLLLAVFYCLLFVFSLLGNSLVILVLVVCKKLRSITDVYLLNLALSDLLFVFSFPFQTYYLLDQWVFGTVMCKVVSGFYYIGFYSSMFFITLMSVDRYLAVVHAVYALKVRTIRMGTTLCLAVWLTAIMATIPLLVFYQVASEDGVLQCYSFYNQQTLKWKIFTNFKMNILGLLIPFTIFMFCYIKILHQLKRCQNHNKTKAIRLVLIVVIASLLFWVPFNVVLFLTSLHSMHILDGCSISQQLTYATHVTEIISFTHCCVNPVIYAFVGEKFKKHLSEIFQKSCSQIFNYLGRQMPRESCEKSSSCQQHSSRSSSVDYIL
- procedure_details: flow cytometry, stimulated human primary Treg cells (high CCR8)
pEC50: −log10 of the molar value.
observation_type: pEC50

binder="hu305-5W-3a-AF (antibody, V domains shown, also called afucosylated hu305-5W-3a) VH: QVQLKQSGPGLVKPSETLSLTCTVSGFSLAVYGVHWVRQPPGKGLEWLGVIWRGGTTDYNPSLKSRLTFSKDSSKSQVSLKLSSVTAADTAVYYCAKNRVTTVVAPNFYAMDYWGQGTLVTVSS VL: DIVMTQSPDSLAVSLGERATINCKSSQSLLYSGNQKNYLAWYQQKPGQPPKLLIYWASTRKSGVPDRFSGSGSGTDFTLTISSLKAEDVAVYYCQQYYTYPLTFGQGTRLEIK" observation_type=pEC50 readout_number=7.32
